What PBM binding z-score was measured for each of the following?
- Tested on: RARa:RXR (NR concentration 270 nM, RXRa partner concentration 90 nM)
- TEST_METHOD_NOTES: PBM binding z-score (relative to random genomic background probes); higher = stronger binding; sequences stand for … in GC…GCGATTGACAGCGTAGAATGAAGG
Numbers only.

Please review the entries below; each comes with its answer.
ENTRY_SEQUENCE	MEAS_VALUE
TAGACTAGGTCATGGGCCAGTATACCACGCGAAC	2.1
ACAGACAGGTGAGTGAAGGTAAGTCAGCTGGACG	0.0462

# map each sequence to its PBM binding z-score
1. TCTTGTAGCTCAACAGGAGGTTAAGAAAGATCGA
2. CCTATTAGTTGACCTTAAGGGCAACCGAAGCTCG
3. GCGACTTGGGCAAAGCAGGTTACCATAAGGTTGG
4. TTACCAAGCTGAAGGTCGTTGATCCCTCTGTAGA

Result:
1: 0.724; 2: 5.12; 3: 0.287; 4: 0.87

Parameter requested: PBM binding z-score. Apply to each item below.
1. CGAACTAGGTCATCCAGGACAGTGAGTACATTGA
2. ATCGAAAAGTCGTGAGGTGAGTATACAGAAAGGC
3. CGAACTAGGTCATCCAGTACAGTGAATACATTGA

Result:
1: 2.46; 2: 0.486; 3: 2.26

State the recorded PBM binding z-score for every item in the following list.
1. CCGACTAGGTTATGGGGCATTCAGGCAACGGTGA
2. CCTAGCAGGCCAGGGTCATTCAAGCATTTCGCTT
3. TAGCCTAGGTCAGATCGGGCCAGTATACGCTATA
4. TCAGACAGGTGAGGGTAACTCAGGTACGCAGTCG
5. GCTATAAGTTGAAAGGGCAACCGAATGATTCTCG
6. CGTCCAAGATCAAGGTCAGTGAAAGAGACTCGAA

Result:
1: 0.303; 2: 3.29; 3: 1.42; 4: 0.722; 5: 2.56; 6: 2.07

====

- System: PPARg homodimer (NR concentration 180 nM)
- TEST_METHOD_NOTES: PBM binding z-score (relative to random genomic background probes); higher = stronger binding; sequences stand for … in GC…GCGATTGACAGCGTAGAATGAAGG
QUANTITY_KIND: PBM binding z-score
Answers are plain numbers.

ENTRY_SEQUENCE	PBM binding z-score
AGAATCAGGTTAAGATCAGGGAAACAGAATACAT	1.01
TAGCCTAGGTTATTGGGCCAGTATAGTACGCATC	-0.257
CCGAGTAGGATATGGGGCATTCAGGCAACGGTGA	0.55
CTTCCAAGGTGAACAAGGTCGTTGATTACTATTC	0.985
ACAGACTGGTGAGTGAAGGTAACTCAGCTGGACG	0.0199
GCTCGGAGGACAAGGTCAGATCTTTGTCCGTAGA	0.86
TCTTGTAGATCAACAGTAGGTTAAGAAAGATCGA	0.243
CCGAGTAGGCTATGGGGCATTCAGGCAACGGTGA	-0.376

Could you report PBM binding z-score for every entry in the following list?
1. CCTGCTGGGTCATGGTCAGCTAATCTACAGTATG
2. CCTAGTTGGTCAGTAGGTCACACACCGGATATGA
3. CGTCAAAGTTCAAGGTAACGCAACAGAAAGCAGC
4. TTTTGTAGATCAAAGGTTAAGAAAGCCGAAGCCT

Result:
1: 0.949; 2: 3.06; 3: 3.41; 4: 1
